Reference for the values: patent EP3301096A1

Record: MIC reported on M. tuberculosis H37Rv.

>>> reported_value("c1cnc2[nH]cc(-c3cnc(-c4c[nH]c5ncccc45)nc3)c2c1")
"> 100 µM"
>>> reported_value("Brc1ccc2c(-c3cnc(-c4c[nH]c5cc(Br)ccc45)cn3)c[nH]c2c1")
"> 100 µM"
>>> reported_value("COc1ccc2[nH]cc(-c3cnc(-c4c[nH]c5ccc(OC)cc45)nc3)c2c1")
"50 µM"
>>> reported_value("c1ccc2c(-c3cnc(-c4c[nH]c5ccccc45)cn3)c[nH]c2c1")
"> 100 µM"
>>> reported_value("Clc1ccc2[nH]cc(-c3cnc(-c4c[nH]c5ccc(Cl)cc45)nc3)c2c1")
"50 µM"
>>> reported_value("c1cc(-c2c[nH]c3ccccc23)nc(-c2c[nH]c3ccccc23)c1")
"> 100 µM"
>>> reported_value("c1ccc2c(-c3csc(-c4c[nH]c5ccccc45)n3)c[nH]c2c1")
"100 µM"
>>> reported_value("Brc1ccc2[nH]cc(-c3cnc(-c4c[nH]c5ccc(Br)cc45)cn3)c2c1")
"> 100 µM"
>>> reported_value("Brc1cc2[nH]cc(-c3cnc(-c4c[nH]c5cc(Br)c(Br)cc45)cn3)c2cc1Br")
"> 100 µM"
>>> reported_value("c1ccc2c(-c3cc(-c4c[nH]c5ccccc45)ncn3)c[nH]c2c1")
"> 100 µM"

Hi team, please reply with MIC for each item in this list.
1. Fc1ccc2[nH]cc(-c3cnc(-c4c[nH]c5ccc(F)cc45)cn3)c2c1
2. COc1ccc2[nH]cc(-c3cnc(-c4c[nH]c5ccc(OC)cc45)cn3)c2c1
3. Fc1ccc2[nH]cc(-c3cnc(-c4c[nH]c5ccc(F)cc45)nc3)c2c1

Found:
1: > 100 µM; 2: > 100 µM; 3: > 100 µM

====

Here's a batch of compounds along with measured MIC for VR E. faecium ATCC 700221.

Example entries begin here.
>>> reported_value("c1cnc2[nH]cc(-c3cnc(-c4c[nH]c5ncccc45)nc3)c2c1 [formula (13)]")
"> 100 µM"
>>> reported_value("Fc1ccc2[nH]cc(-c3cnc(-c4c[nH]c5ccc(F)cc45)cn3)c2c1 [formula (5), 2,5-bis(5-fluoro-1H-indole-3-yl)pyrazine]")
"> 100 µM"

// next item, MIC requested
Lookup: # return recorded MIC for entry Brc1ccc2c(-c3cnc(-c4c[nH]c5cc(Br)ccc45)cn3)c[nH]c2c1 [formula (6), 2,5-bis(6-bromo-1H-indole-3-yl)pyrazine]
Found: > 100 µM

====

# MIC per entry for E. faecium ATCC 35667

Provide each entry's MIC from the list below.
1. COc1ccc2[nH]cc(-c3cnc(-c4c[nH]c5ccc(OC)cc45)cn3)c2c1 [formula (8)]
2. c1cc(-c2c[nH]c3ccccc23)nc(-c2c[nH]c3ccccc23)c1 [formula (16), 2,6-di(1H-indole-3-yl)pyridine]
3. Brc1ccc2[nH]cc(-c3cnc(-c4c[nH]c5ccc(Br)cc45)cn3)c2c1 [formula (3), 2,5-bis(5-bromo-1H-indole-3-yl)pyrazine]

Found:
1. > 100 µM
2. > 100 µM
3. > 100 µM
